The following compounds each carry a recorded pIC50 for PAFR (Homo sapiens, UniProt P25105).
pIC50 field: float, defined as -log10 of concentration (mol/L).

[
  {
    "compound": "O=S(=O)(N[C@H]1CCC[C@@H](n2cnnc2)C1)c1cc(-c2cncc3ccccc23)cc(C(F)(F)F)c1 [3 Ay]",
    "pIC50": 7.70
  },
  {
    "compound": "O=S(=O)(N[C@H]1CCC[C@@H](n2cnnc2)C1)c1cc(-c2ccc(C(F)(F)F)cc2)cc(C(F)(F)F)c1 [Compound 3Al]",
    "pIC50": 8.09
  }
]

q: What value of pIC50 has been reported for the following compound? O=S(=O)(N[C@H]1CCC[C@@H](n2cnnc2)C1)c1cc(-c2ccc3nc(C4CC4)nn3c2)cc(C(F)(F)F)c1 [Compound 3Aaq]
a: 7.70

Origin of values: patent US9029377B2
